Data origin: the supplement of paper PMC6555819

Test system: VDR:RXRa (NR concentration 270 nM, RXRa partner concentration 90 nM)
Experiment: PBM binding z-score (relative to random genomic background probes); higher = stronger binding; sequences stand for … in GC…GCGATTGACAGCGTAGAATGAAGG
Would you mind telling me the reported PBM binding z-score of each entry?

Some solved entries appear below for comparison.
>  <monomer-sequence>
TCTCGGAGGACGCGAAAGGTCAGAGCTCGACATC

>  <PBM binding z-score>
2.8

$$$$
>  <monomer-sequence>
TCTATGAGTTGATTAGGGCAACCGAAACAGCGGA

>  <PBM binding z-score>
0.54

$$$$
>  <monomer-sequence>
TCGAGTAGGGTAGTCGGGGCATTCAGCCAACATA

>  <PBM binding z-score>
0.167

$$$$
>  <monomer-sequence>
CGTTACGGGTCAAGGTTATAGCACGGGTGGTACG

>  <PBM binding z-score>
3.62

$$$$
>  <monomer-sequence>
ATACCAAGGTGATCGTCAGGTCGTTGATACTAAC

>  <PBM binding z-score>
1.36

$$$$

What does the data say about its PBM binding z-score? Entry: "ATATGTAGGTTACATCCGGGTCATACAGGCTATG"
4.02

---

Test system: PXR:RXRa (NR concentration 270 nM, RXRa partner concentration 90 nM)
Assay: PBM binding z-score (relative to random genomic background probes); higher = stronger binding; sequences stand for … in GC…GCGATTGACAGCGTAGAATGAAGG
Decision: PBM binding z-score >= 0.3 yields true (1), all other cases yield false (0).

>  <monomer-sequence>
GCGACTCGGGCATCAGCAGGTTACCATAACTTAA

>  <assigned-category>
false (0)

$$$$
>  <monomer-sequence>
TCATATAGGTAATACAGGTGAATGTCGGCATCTA

>  <assigned-category>
true (1)

$$$$
>  <monomer-sequence>
GCTAGTTGGTCAGTAAAAGGTCAAACACCGGTCG

>  <assigned-category>
true (1)

$$$$
>  <monomer-sequence>
TCTATTATTTGAAGGGCAACCGACGAGTCCGTTT

>  <assigned-category>
true (1)

$$$$
>  <monomer-sequence>
GCATATAGCTAATACAAGGTGAAAGTCCGATTGT

>  <assigned-category>
false (0)

$$$$
>  <monomer-sequence>
TCTCGGAGGACACGAAAGGTCAAAGCTCGACATC

>  <assigned-category>
true (1)

$$$$

// inclusive: PBM binding z-score at least 0.3? input: "GCTATTAGTTGAAAGGGCAACCTAATGATTCTCG"
true (1)

And for "CCGAGTAGGTTTTGGGGCATTCAGGCAACGGTGA" ?
false (0)

Param item: "TCTCGGAGGACACGCAGGTCAGAGCTTTCCAGAG"
true (1)

What do you get for "ACCTCTAGGTAACAAGTTCAGTGAAAGAGAGGAC" ?
true (1)

Same question, "TCGAGTAGGTTAGGGCCATTCAGAATGGCGTCGA" this time
false (0)

Would you kindly repeat that for "TCTATAAGTTGATTAGGGCAACCGAAACAGCGGA" ?
false (0)

Same for "CCGACTGGGGCAAAGGCTACCATACTCAGTACGA"
false (0)

Now the sequence "ATATGTAGGTTACATCCGGCTCATTCAGGCTATG"
false (0)

Let us now turn to "GTACCAAGGTGAGTAGGTCGTTGATGAGTAGGCG"
false (0)

Same for "TATACAGGGTAAAAGGCCAGAGTACGAATGTCGA"
false (0)

And "CAAACTAGGTCACCGGAAGGTCTAAGTCCGCATG" ?
true (1)

"TCTATTAGTTGATTAGGGCTACCGAAACAGCGGA" , same question.
false (0)

Then "ATCGAAAGGTCGTGAGGTGAGTAAACAGAAAGGC" ?
true (1)

Let us now turn to "TCGAGTAGGTTACCAACGGGGCATTCAGCTTTCT"
false (0)

Also "CCGACTGGGGCAAGGTTACTATAACGCACAGCCA" ?
false (0)

Same question, "TCTCAGAGGACACGAAGGTCAGAGCTTTCCAGAG" this time
true (1)

Thanks! And "AGTCAAAGTTCATCTAGGTAACGTCAGATATGCT" ?
true (1)
